The following binders are shown together with reported optical density values.
- MEASURED_TARGET: Mouse ACVR2A (mouse, UniProt P27038 20-135, limits assumed); note: test concentration or dose not given here
- Sequence (P27038 20-135 limits assumed): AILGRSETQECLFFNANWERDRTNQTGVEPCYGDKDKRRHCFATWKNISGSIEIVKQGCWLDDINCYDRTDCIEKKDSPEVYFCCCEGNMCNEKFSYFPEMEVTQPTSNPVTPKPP
- PROTOCOL_NOTES: ELISA
The response must be a number in OD with no trailing unit.

369_G04 (antibody, V domains shown) VH: EVQLLESGGGLVQPGGSLRLSCAASGFTFDSYSMNWVRQAPGKGLEWVSGINYNGGYTSYADSVKGRFTISRDNSKNTLYLQMNSLRAEDTAVYYCARSANWHDTALDYWGQGTLVTVSS VL: DIQMTQSPSSLSASVGDRVTITCRASQSILTYVNWYQQKPGKAPKLLIYATTSRHSGVPSRFSGSGSGTDFTLTISSLQPEDFATYYCQQSYETPLTFGGGTKVEIK: 2.69

### Prompt I am curious: what optical density value has been reported for 369_E11 (antibody, V domains shown) VH: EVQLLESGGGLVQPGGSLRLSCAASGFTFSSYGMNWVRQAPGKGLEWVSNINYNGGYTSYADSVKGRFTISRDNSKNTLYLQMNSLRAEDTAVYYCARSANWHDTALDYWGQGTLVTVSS VL: DIQMTQSPSSLSASVGDRVTITCRASQSIISYLNWYQQKPGKAPKLLIYAATSLASGVPSRFSGSGSGTDFTLTISSLQPEDFATYYCQQSYDTPLTFGGGTKVEIK ?
### Response 3.2

### Prompt Entry 368_A05 (antibody, V domains shown) VH: EVQLLESGGGLVQPGGSLRLSCAASGFTFSSYSMNWVRQAPGKGLEWVAGINYNSGYTGYADSVKGRFTISRDNSKNTLYLQMNSLRAEDTAVYYCARSANWHDTALDYWGQGTLVTVSS VL: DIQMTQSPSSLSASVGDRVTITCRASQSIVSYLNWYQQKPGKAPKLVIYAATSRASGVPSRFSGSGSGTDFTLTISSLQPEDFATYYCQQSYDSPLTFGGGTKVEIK : reported optical density = ?
### Response 2.7

### Prompt optical density for 369_B01 (antibody, V domains shown) VH: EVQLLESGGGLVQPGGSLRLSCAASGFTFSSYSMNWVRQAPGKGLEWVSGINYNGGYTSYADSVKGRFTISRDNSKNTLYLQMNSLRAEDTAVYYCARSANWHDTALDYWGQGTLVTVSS VL: DIQMTQSPSSLSASVGDRVTITCRASQSILSYLNWYQQKPGKAPKLLIYAVTSRASGVPSRFSGSGSGTDFTLTISSLQPEDFATYYCQQSYENPLTFGGGTKVEIK ?
### Response 3.46

### Prompt If you can, please state the reported optical density value of 369_G12 (antibody, V domains shown) VH: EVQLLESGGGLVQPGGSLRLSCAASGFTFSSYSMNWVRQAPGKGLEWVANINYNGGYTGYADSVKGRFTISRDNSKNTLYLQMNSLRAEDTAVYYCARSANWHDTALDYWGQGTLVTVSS VL: DIQMTQSPSSLSASVGDRVTITCRASQSILTYVNWYQQKPGKAPKLVIYAATSRHSGVPSRFSGSGSGTDFTLTISSLQPEDFATYYCQQSDNTPLTFGGGTKVEIK .
### Response 1.88
